Tested on: SF-295 CNS
measurement_description: NCI tumour cell line growth inhibition, 48 h
recorded_metric: TGI

compound	recorded_metric	measurement
CC1=NC(=O)C(C)(c2ccccc2)N1CCc1ccccc1 (stereo unspecified)	TGI	> 100 µM
CN(C)CCCNC(=O)c1cc(NC(=O)CCNS(=O)(=O)c2ccc3c(c2)C(=O)c2ccccc2C3=O)cn1C	TGI	> 100 µM
CCc1ccc(NC(=O)Nc2c[nH]c3ccccc23)cc1	TGI	> 56 µM

Please report the recorded TGI for O=C(O)C1CC2C3CCC2C1C3=O (stereo unspecified) .
> 100 µM

Form field: reported TGI of OCC1OC(n2ccc3c2ncn2ncnc32)C(O)C1O (stereo unspecified)
> 59.8 µM

Requested read-out: TGI. Entry: CC1=C2CCCC2C/C(=N/Nc2ccc([N+](=O)[O-])cc2[N+](=O)[O-])CC1 (stereo unspecified)
> 100 µM

If you can, please state the reported TGI value of CCN=C1C=CC(=C(c2ccc(N(C)C)cc2)c2ccc(N(C)C)cc2)c2ccccc21 .
0.423 µM

Fill in: TGI of COc1cc2cc(Oc3ccc(NC(=O)Nc4ccc(Cl)c(C(F)(F)F)c4)cc3)c(C)nc2cc1OCCN1CCCCC1 is ___
3.3 µM

Request the reported TGI associated with Nc1nc(/C=C\c2ccc([N+](=O)[O-])o2)nc(N2CCN(c3ccccc3)CC2)n1
73.8 µM

====

Test system: SK-MEL-2 melanoma
One label from this list, please: active, inactive

compound	system_tested	label
CCc1c(C)[nH]c(/C=C2\N=C(c3ccc[nH]3)C=C2OC)c1C	SK-MEL-2 melanoma	active
Cc1cc(N2CCCCC2)nc(N(CCNc2ccnc3cc(Cl)ccc23)Cc2ccco2)n1	SK-MEL-2 melanoma	inactive
COc1ccc2c(c1)CC[C@@H]1[C@@H]2CC[C@]2(C)C(=O)C3(CCCCC3)C[C@@H]12	SK-MEL-2 melanoma	inactive

Hi, sorry to bother you, what did the test record for C=C1C(=O)O[C@@H]2C1CC(=O)C(C)CC/C=C(\C)CCC[C@H](C)[C@H]2OC(C)=O (stereo not given in full) ?
inactive

For this compound, state the assay outcome: O=S(=O)(c1ccc(NC(=S)NCc2cccnc2)cc1)N1CCCCC1
inactive

====

Test system: NCI-H522 lung
measurement_description: NCI tumour cell line growth inhibition, 48 h
recorded_metric: TGI (µM)
Your answer is read as µM, so omit the unit and give the number.

Recorded results for 8 molecules are shown here.
molecule	u	TGI
CCCC(O)[C@@H](O)c1ccc2c(c1O)C(=O)c1c(OC)cccc1C2=O (some centres undefined)	µM	42.1
COc1cc2nc(Cl)nc(Nc3cccc(C(=O)/C=C/c4ccccc4)c3)c2cc1OC	µM	52.6
CC1(C)CCC2(C(=O)OC3OC(CO)C(O)C(O)C3O)CC[C@]3(C)C(=CCC4C5(C)CC[C@H](OC6OC(C(=O)O)C(O)C(O)C6O)C(C)(C)C5CCC43C)C2C1 (some centres undefined)	µM	9.71
COc1cc(Cn2cc3c(c2)-c2oncc2CC3)cc(OC)c1OC	µM	1.29
N#CC(C#N)=Cc1ccc(-c2ccc(-c3nc4ccccc4s3)cc2)o1	µM	51.8
CC(C)(O)c1ccc(N2CCN(c3nnc(Cc4ccccc4)c4ccccc34)CC2)nc1	µM	20.7
COC(=O)[C@H](Cc1ccccc1)NC(=O)NCCN(CCNC(=O)N[C@@H](Cc1ccccc1)C(=O)OC)C(=O)N[C@@H](Cc1ccccc1)C(=O)OC	µM	29.6
COc1cc2c(cc1OC)-c1ccc3cc4c(cc3c1N(CCN1CCCC1)C2)OCO4	µM	1.43

Item: CC[C@H](Nc1nc(N)nc(C)c1C#N)c1nc2cccc(CN(C)c3ncc(C(=O)NO)cn3)c2c(=O)n1-c1ccccc1 Test system: NCI-H522 lung Read-out: TGI Value: ?
4.27

Short answer please: TGI, NCI-H522 lung, entry Cc1occc1C(=S)Nc1ccc(Cl)c(C(=O)OCC(F)(F)F)c1
45.5

NCI-H522 lung / TGI / COc1cc2cc(Oc3ccc(NC(=O)Nc4ccc(Cl)c(C(F)(F)F)c4)cc3)c(C)nc2cc1OCCN1CCCCC1 : value?
3.26

Cited source: PubChem BioAssay (NCI)
